PROTOCOL DETAILS: NCI Yeast Anticancer Drug Screen. Data for the bub3 strain (AID 167)
REPORTED CONDITIONS: S. cerevisiae bub3 mutant strain, at 50.0 µM, stronger effect = higher value
About 79,000 compounds went through this panel and 15% of them were active in at least one assay; those are over-represented in the sample as a whole. Calls of active or inactive are those of the source. No stated cut-off is given here; in the data, active means growth inhibition above about 70%; inactive means the rest.

MOLECULE	growth inhibition
Cn1cnc([N+](=O)[O-])c1Sc1ccncc1S(N)(=O)=O	6.5% (inactive)
Cc1cc2ccccc2c[n+]1CC(=O)c1ccc([N+](=O)[O-])cc1	7.35% (inactive)
CNC(=O)CNC(=O)C(Cc1ccc(NC(=O)CCCCC(C)=O)cc1)NC(=O)C(CCC(=O)OCc1ccccc1)NC(=O)OC(C)(C)C (stereo not given)	-30.1% (inactive)
Cc1[nH]c(C)c2ccc(=O)ccc12	-2% (inactive)
Brc1ccc(-c2oc3c4ccccc4c4ccccc4c3c2-c2ccc(Br)cc2)cc1	2.9% (inactive)
C=C1C(=O)O[C@H]2C[C@@H]1C(=O)C/C(C)=C/CC/C(C)=C/CC[C@@]2(C)OCSC	9.85% (inactive)
Clc1ccc(/C=N/N2CCN(/N=C/c3ccc(Cl)cc3)CC2)cc1	13.2% (inactive)
N#CCCC1(CCC#N)CCc2ccccc2C1=O	8.1% (inactive)
CC(C)c1ccc2c(c1)CCC1C2(C)CCCC1(C)C(O)c1ccccc1 (stereo not given)	8.05% (inactive)
Oc1c(CNCc2ccccc2)cc(CNCc2ccccc2)c(O)c1CNCc1ccccc1	17.3% (inactive)
